Please consider the recorded pIC50 for Cytochrome P450 1A2 (Homo sapiens, UniProt P05177) in what follows.
pIC50: −log10 of the molar value.

Per the record, O=C(Nc1ccc(N2C(=O)[C@@H]3[C@H](C2=O)[C@@H]2C=C[C@H]3C2)c(Cl)c1)c1ccccn1 (mixture of isomers) has pIC50 of < 4.52

Per the record, COc1cc(NC(=O)c2ccccn2)ccc1Cl has pIC50 of > 7.00

Per the record, O=C(Nc1ccc(N2C(=O)CC(c3ccccc3)C2=O)c(Cl)c1)c1ccccn1 (racemic) has pIC50 of 5.05

Per the record, O=C(Nc1ccc(N2C(=O)CC3(CCCCC3)C2=O)c(Cl)c1)c1ccccn1 has pIC50 of < 4.52

Per the record, O=C(Nc1ccc(N2S(=O)(=O)c3ccccc3S2(=O)=O)cc1)c1ccccn1 has pIC50 of < 4.52

Values from ChEMBL document CHEMBL1921795
